Known normalized growth of a selection of molecules
Assay: chemical genetic growth profiling, strain panel (AID 1159580);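 further: tested at 20 µM; growth read once vehicle control cultures reached saturation at 30 °C; 1 = growth at the plate median or of vehicle wells; lower values mean less growth of the strain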
Conditions: S. cerevisiae deletion strains, growth OD, locus YLR268W, strain sec22, active compounds read low
Screen size: about 5,500 compounds; about 2,000 (36%) were called active. Roughly 18% stayed inconclusive and do not appear here. The list shows a part of the results.
Lab note: jot down the number only; don't add units.

See these solved cases before continuing.
>  <molecule>
COC(=O)c1c(Cl)c(Cl)c(C(=O)OC)c(Cl)c1Cl

>  <normalized growth>
0.992

$$$$
>  <molecule>
CCC1(c2ccc(N)cc2)CCC(=O)NC1=O (configuration not stated)

>  <normalized growth>
1.01

$$$$
>  <molecule>
CC(C)[N+](C)(CCOC(=O)C1c2ccccc2Oc2ccccc21)C(C)C

>  <normalized growth>
1.02

$$$$
>  <molecule>
CCC1(C)CC(=O)NC1=O (configuration not stated)

>  <normalized growth>
1.02

$$$$
>  <molecule>
O[C@H]1C=C2CCN3Cc4cc5c(cc4C(C23)[C@@H]1O)OCO5 (some centres not stated)

>  <normalized growth>
0.454

$$$$

Given CN1Cc2c(ccc3c2OCO3)C2C(O)Cc3cc4c(cc3C21)OCO4 (configuration not stated) , state its recorded normalized growth.
1

Given "S=C=NCc1ccccc1" , state its recorded normalized growth.
0.0685

====

Test: chemical genetic growth profiling, strain panel (AID 1159580);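 further: tested at 20 µM; growth read once vehicle control cultures reached saturation at 30 °C; 1 = growth at the plate median or of vehicle wells; lower values mean less growth of the strain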
Details: S. cerevisiae deletion strains, growth OD, locus YGL167C, strain pmr1
The campaign covered roughly 5,500 compounds. About 2,000 (36%) were called active. Roughly 18% stayed inconclusive and do not appear here. Rule as the data show it: active = normalized growth mostly below about 0.91 (no sharp cut-off); inconclusive = no clear call, values can overlap the other calls; inactive = mostly above about 0.92. The list shows a part of the results.
Valid outcomes are listed here; reply with one: yes (1) for active, no (0) for inactive

Worked set:
>  <molecule>
COc1cc(O)c2c(=O)cc(C)oc2c1CC=C(C)C

>  <categoryLabel>
no (0)

$$$$
>  <molecule>
Cc1cc(OC(=O)N2CCCCC2)c(C(C)C)cc1[N+](C)(C)C

>  <categoryLabel>
no (0)

$$$$
>  <molecule>
CC(C)(CO)C(O)C(=O)NCCCO (stereo not given)

>  <categoryLabel>
no (0)

$$$$
>  <molecule>
COC(=O)C1[C@H]2C[C@H]3c4[nH]c5ccccc5c4CCN3C[C@@H]2CC[C@@H]1O (stereo not given in full)

>  <categoryLabel>
no (0)

$$$$

API: the following record is the query input.
Recorded test outcome, item "Cc1c(N(C)C)c(=O)n(-c2ccccc2)n1C"
no (0)

====

Test: chemical genetic growth profiling, strain panel (AID 1159580);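 further: tested at 20 µM; growth read once vehicle control cultures reached saturation at 30 °C; 1 = growth at the plate median or of vehicle wells; lower values mean less growth of the strain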
Details: S. cerevisiae deletion strains, growth OD, locus YJR075W, strain HOC1, active compounds read low
Out of some 5,500 compounds screened, about 2,000 (36%) were called active. Another 18% or so got no clear call; they are omitted. The list shows a part of the results.
Field: label. Allowed values: TRUE (normalized growth < 1) or FALSE (normalized growth >= 1).

Worked set:
>  <compound>
CC(C)=CCc1c(O)cc2oc(C)cc(=O)c2c1O

>  <categoryLabel>
FALSE

$$$$
>  <compound>
C=CCc1ccc2c(c1)OCO2

>  <categoryLabel>
FALSE

$$$$
>  <compound>
CC(=O)/C(=C\Nc1ncccn1)S(=O)(=O)c1ccc(Cl)cc1

>  <categoryLabel>
TRUE

$$$$

Bench note: check whether "Oc1ccc(O)cc1" shows normalized growth below 1
TRUE

Bench note: check whether CC1(C)C2CC[C@]3(C)C(C(=O)C=C4[C@@H]5C[C@@](C)(C(=O)O)CC[C@]5(C)CC[C@]43C)[C@@]2(C)CC[C@@H]1O (stereo not given in full) shows normalized growth below 1
FALSE

Bench note: check whether "NC1=C(c2ccccc2)C(=O)NC1=O" shows normalized growth below 1
TRUE

Bench note: check whether "CN(C)C=Nc1nc2c(s1)CCc1ccccc1-2" shows normalized growth below 1
TRUE
